// provenance: patent US8546392B2

assay target: 17β-HSD1 (Homo sapiens (Human), UniProt P14061)
Sequence (P14061 whole entry): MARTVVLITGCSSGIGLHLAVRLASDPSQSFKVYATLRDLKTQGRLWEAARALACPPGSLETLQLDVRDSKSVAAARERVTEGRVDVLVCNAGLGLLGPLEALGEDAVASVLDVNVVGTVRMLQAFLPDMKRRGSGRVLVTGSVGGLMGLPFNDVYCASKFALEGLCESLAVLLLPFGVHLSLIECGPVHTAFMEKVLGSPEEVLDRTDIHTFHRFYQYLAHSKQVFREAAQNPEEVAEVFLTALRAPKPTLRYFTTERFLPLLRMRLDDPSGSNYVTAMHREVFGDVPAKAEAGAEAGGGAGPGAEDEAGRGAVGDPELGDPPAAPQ
protocol details: 17β-HSD1 test assay (recombinant protein from Sf9 insect cells, 3H-estrone/NADPH)
Assay type: biochemical
condition parameters: read-out: HSD1 100 nM (% inhibition); inhibitor 100 nM
property: inhibition at 0.1 µM (%)

INSERT INTO measurements (molecule, units_label, observed_measurement) VALUES
  ('Oc1cccc(-c2ccc3c(-c4ccccc4)c(O)ccc3c2)c1 [Compound 56, 6-(3-Hydroxyphenyl)-1-phenyl-2-naphthol]', '%', 76.2),
  ('N#Cc1cc(O)cc2ccc(-c3cccc(O)c3)cc12', '%', 83),
  ('CS(=O)(=O)NC(=O)c1cccc(-c2c(O)ccc3cc(-c4cccc(O)c4)ccc23)c1', '%', 16.5),
  ('Nc1cccc(-c2c(O)ccc3cc(-c4cccc(O)c4)ccc23)c1', '%', 74.1),
  ('Oc1cccc(-c2ccc3c(Br)c(O)ccc3c2)c1', '%', 82.9),
  ('O=C(c1c(O)ccc2cc(-c3cccc(O)c3)ccc12)N1CCOCC1', '%', 27.8),
  ('O=S(=O)(Nc1cccc(-c2c(O)ccc3cc(-c4cccc(O)c4)ccc23)c1)c1cc(F)c(Br)cc1F', '%', 68),
  ('Cc1noc(NC(=O)c2c(O)ccc3cc(-c4cccc(O)c4)ccc23)c1C', '%', 43);

[1] O=S(=O)(Nc1cccc(-c2c(O)ccc3cc(-c4cccc(O)c4)ccc23)c1)c1ccc(Cl)s1
[2] CNC(=O)/C=C/c1c(O)ccc2cc(-c3cccc(O)c3)ccc12
Query :: Between the entries labelled 1 and 2 , which has a larger inhibition at 0.1 µM value on record? Kindly give the label for the entry you pick.
Result :: 1
